- System: RPMI-8226 leukemia
- experiment: NCI-60 one-dose screen, 48 h (100 = growth as untreated, 0 = no growth, -100 = all killed)
- cond: 10 µM unless noted
- Protocol: Growth inhibition of the RPMI-8226 human tumor cell line is measured as a screen for anti-cancer activity. Cells are grown in 96 well plates and exposed to the test compound for 48 hours. Compounds are tested at a single concentration, which is 10^-5 M for most compounds. The reported endpoint is percent growth (GI% or GIPRCNT), where numbers from 0 - 100% represent growth inhibition, and numbers from -100% - 0 represent cell death. For example, a value of 40 represents 60% growth inhibition. […]
The panel holds about 83,000 compounds, 20% with a hit somewhere; the sample as a whole holds those more often.
Simple rule here: growth less than 30% is 1.0, otherwise 0.0.

Look over these answered cases.
molecule	tgt	assigned label
Cc1ccsc1C(NC(=O)c1ccccc1)c1cc(Cl)c2cccnc2c1O (stereo not given)	RPMI-8226 leukemia	1.0
CCN1CCN(CCCN(C[C@H]2Cc3ccccc3CN2)[C@H]2CCCc3cccnc32)CC1	RPMI-8226 leukemia	0.0
C=CCCCOC1[C@H](OCc2ccccc2)C(OCc2ccccc2)C(OC)O[C@@H]1CNC(=O)c1cccc(I)c1 (stereo not given in full)	RPMI-8226 leukemia	1.0
C[C@@H](Oc1cc(-c2cnn(C3CCNCC3)c2)cnc1N)c1c(Cl)ccc(F)c1Cl	RPMI-8226 leukemia	1.0

Moving on to another molecule below.
Query: Is growth strictly under 30% for the entry `C[C@@H]1COCCN1c1cc(C2([S@](C)(=N)=O)CC2)nc(-c2ccnc3[nH]ccc23)n1` ?
Response: 0.0

###

- Test system: SF-268 CNS
- experiment: NCI-60 one-dose screen, 48 h (100 = growth as untreated, 0 = no growth, -100 = all killed)
- cond: 10 µM unless noted
This is part of a sample that, as a whole, favours compounds with a hit. Of some 83,000 tested, about 20% had one in any assay.
Simple rule here: growth less than 80% is Fulfilled, otherwise Not fulfilled.

Look over these answered cases.
compound	assigned label
C[C@@H]1COC(Nc2ccc3ncnc(Nc4ccc(OCc5nccs5)c(Cl)c4)c3c2)=N1	Fulfilled
COC(=O)[C@@H](NC(=O)[C@@H](OC)[C@@H]1Cc2cc3cc(OC4CC(OC5CC(O)C(O)C(C)O5)C(O)C(C)O4)c(C)c(O)c3c(O)c2C(=O)[C@H]1OC1CC(OC2CC(OC3CC(C)(O)C(O)C(C)O3)C(O)C(C)O2)C(O)C(C)O1)C(C)C (some centres not stated)	Fulfilled
CC/C(=C(/c1ccc(Cl)cc1)c1ccc(OCCN2CCCCC2)cc1)c1ccc(Cl)cc1	Not fulfilled

Moving on to another compound below.
Query: Is growth strictly under 80% for the entry O=C1C=CC2(NN=C(c3ccccc3)N2c2cccc(Cl)c2)c2cccc(O)c21 (configuration not stated) ?
Response: Fulfilled

###

Exercise: state measured growth for each of the compounds provided.
- System: TK-10 renal
- experiment: NCI-60 one-dose screen, 48 h (100 = growth as untreated, 0 = no growth, -100 = all killed)
- cond: 10 µM unless noted
Compounds without any hit were thinned out: in the full panel of roughly 83,000, 20% have a hit.
Give bare numbers, in %.

Guide cases for growth, answers given:
compound	tgt	growth [%]
O=CC(OC(=O)c1ccccc1)C(OC(=O)c1ccccc1)C(COC(c1ccccc1)(c1ccccc1)c1ccccc1)OC(=O)c1ccccc1 (configuration not stated)	TK-10 renal	77.8
CSc1nc2ncncc2[nH]1	TK-10 renal	102
CC(C)=CCc1cc2c(cc1O)C1=C(C(=O)C3=C(C1=O)S(=O)(=O)CCN3)C(C=C(C)C)O2 (configuration not stated)	TK-10 renal	7.58
C=C1[C@@H](O)C[C@H]2C(C)(C)C[C@H](Cl)C[C@]2(C)[C@H]1C[C@H](O)[C@H]1CC(=O)NC1=O	TK-10 renal	-18.6
CC[C@H](CO)Nc1nc(NCc2ccccc2)c2ncn(C(C)C)c2n1	TK-10 renal	92.4

State the recorded growth for every item in the following list.
1. COc1ccc(COc2cc3oc(=O)c4cc(C(C)O)ccc4c3cc2OC)cc1 (configuration not stated)
2. CCCCCc1ccc(C)cc1OC(=O)CCl
3. O=C(NO)c1ccc(Cn2c(=O)n(CCc3ccccc3)c(=O)c3ccccc32)cc1
4. Cc1ccc(Nc2nccc(N(C)c3ccc4c(C)n(C)nc4c3)n2)cc1S(N)(=O)=O
5. C=CC(=O)N1CCC[C@@H](n2nc(-c3ccc(Oc4ccccc4)cc3)c3c(N)ncnc32)C1
6. CCc1nc(C(N)=O)c(Nc2ccc(N3CCC(N4CCN(C)CC4)CC3)c(OC)c2)nc1NC1CCOCC1
7. O=C1NC(=O)[C@@H](c2cn3c4c(cccc24)CCC3)[C@@H]1c1c[nH]c2ccccc12

Response:
1. 73.5
2. 105
3. 43.4
4. 21.2
5. -8.56
6. 25.4
7. 43

The origin of these recorded values is PubChem BioAssay (NCI).
